Sourced from patent US10196374B2

# Assay target: human glucocorticoid receptor (GR) (Homo sapiens (Human), UniProt P04150)
# Sequence (P04150 whole entry): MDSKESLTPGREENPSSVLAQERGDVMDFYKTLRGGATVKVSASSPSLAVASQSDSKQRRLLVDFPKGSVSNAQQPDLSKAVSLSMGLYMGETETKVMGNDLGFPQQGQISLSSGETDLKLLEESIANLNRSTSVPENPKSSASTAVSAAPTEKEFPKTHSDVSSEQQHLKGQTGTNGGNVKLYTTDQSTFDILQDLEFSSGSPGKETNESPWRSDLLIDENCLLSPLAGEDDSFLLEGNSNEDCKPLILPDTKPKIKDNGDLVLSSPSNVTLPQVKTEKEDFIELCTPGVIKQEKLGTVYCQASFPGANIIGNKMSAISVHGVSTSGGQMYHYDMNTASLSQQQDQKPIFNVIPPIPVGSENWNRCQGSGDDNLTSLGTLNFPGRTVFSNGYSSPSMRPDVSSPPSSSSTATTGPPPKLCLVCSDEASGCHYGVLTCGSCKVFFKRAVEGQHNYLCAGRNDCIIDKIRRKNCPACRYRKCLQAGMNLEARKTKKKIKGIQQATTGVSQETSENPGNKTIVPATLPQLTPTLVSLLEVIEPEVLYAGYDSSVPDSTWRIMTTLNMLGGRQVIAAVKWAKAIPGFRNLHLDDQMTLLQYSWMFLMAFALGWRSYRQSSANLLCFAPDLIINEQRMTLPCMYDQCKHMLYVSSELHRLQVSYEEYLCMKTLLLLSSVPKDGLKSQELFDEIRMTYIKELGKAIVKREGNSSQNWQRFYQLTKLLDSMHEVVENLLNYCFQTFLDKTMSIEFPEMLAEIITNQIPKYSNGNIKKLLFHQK
# Assay name: GRE Antagonist Assay (ChagoK1 18:7:2 s4/GRE reporter cells pre-stimulated with dexamethasone)
# Type: cell-based
# Measurement conditions: ChaGo-K-1; at 1 μM; relative to full antagonist effect of Mifepristone (RU486); read-out: TA antagonist Observed max Effect at 1 μM (%)
Measure name: Emax at 1 µM (%)

INSERT INTO results (entry_smiles, measure_name, readout_value) VALUES
  ('CC(C)[C@H](NC(=O)C(F)(F)F)[C@H](Oc1ccc2c(cnn2-c2ccc(=O)n(C)c2)c1)c1cc(F)cc(F)c1', 'Emax at 1 µM', 51),
  ('CC(C)[C@H](NC(=O)C(C)(F)F)[C@H](Oc1ccc2c(cnn2-c2ccc(=O)n(C)c2)c1)c1ccc(OC(F)(F)F)cc1', 'Emax at 1 µM', 63),
  ('CC(C)[C@H](NC(=O)C(F)(F)F)[C@H](Oc1ccc2c(cnn2-c2ccc(=O)n(C)c2)c1)c1cc(F)cc(Cl)c1', 'Emax at 1 µM', 61),
  ('CC(C)[C@H](NC(=O)C(F)(F)F)[C@H](Oc1ccc2c(cnn2-c2ccc(=O)n(C)c2)c1)c1ccc(Cl)c(F)c1', 'Emax at 1 µM', 79),
  ('CC(C)[C@H](NC(=O)C(C)(F)F)[C@H](Oc1ccc2c(cnn2-c2ccc(=O)n(C)c2)c1)c1ccccc1', 'Emax at 1 µM', 56),
  ('CC(C)[C@H](NC(=O)C(C)(F)F)[C@H](Oc1ccc2c(cnn2-c2ccc(=O)n(C)c2)c1)c1ccc(Cl)c(F)c1', 'Emax at 1 µM', 66);

====

# Tested on: release of TNFα from whole blood stimulated with LPS
# Assay name: In Vitro Human Whole Blood: inhibition of TNFα release from whole blood stimulated with LPS
# Assay type: cell-based
# Measurement conditions: LPS 30 μg/mL, 18 hr, read-out: TNFα pIC50 (converted)
Measure name: IC50 (nM)

INSERT INTO assay_data (compound, assay_target, readout_value) VALUES
  ('CC(C)[C@H](NC(=O)C(C)(F)F)[C@H](Oc1ccc2c(cnn2-c2ccc(=O)n(C)c2)c1)c1cc(F)cc(F)c1', 'release of TNFα from whole blood stimulated with LPS', 100),
  ('CC(C)[C@H](NC(=O)C(C)(F)F)[C@H](Oc1ccc2c(cnn2-c2ccc(=O)n(C)c2)c1)c1ccccc1', 'release of TNFα from whole blood stimulated with LPS', 631);

(I) CC(C)[C@H](NC(=O)C(F)(F)F)[C@H](Oc1ccc2c(cnn2-c2ccc(=O)n(C)c2)c1)c1cccc(Cl)c1
(II) C[C@]12C=CC(=O)C=C1CC[C@@H]1[C@@H]2[C@@H](O)C[C@@]2(C)[C@H]1CC[C@]2(O)C(=O)CO [Prednisolone, prednisolone, reference compound]
Could you check which of I and II has a smaller value for IC50? I would appreciate it if you answered with the label of your choice. II
(II: 251 nM, I: 398 nM)

====

# Assay target: UniProt P04150
# Assay name: GRE Antagonist Assay (ChagoK1 18:7:2 s4/GRE reporter cells pre-stimulated with dexamethasone)
# Assay type: cell-based
# Measurement conditions: transactivation in antagonist mode, pre-stimulated with dexamethasone 70 nM
Measure name: TA antagonist pIC50

INSERT INTO assay_data (entry_smiles, readout_value) VALUES
  ('CC(C)[C@H](NC(=O)C(C)(F)F)[C@H](Oc1ccc2c(cnn2-c2ccc(=O)n(C)c2)c1)c1cc(Cl)cc(Cl)c1', 6.8),
  ('CC(C)[C@H](NC(=O)C(F)(F)F)[C@H](Oc1ccc2c(cnn2-c2ccc(=O)n(C)c2)c1)c1cccc(Cl)c1', 7.3),
  ('CC(C)[C@H](NC(=O)C(C)(F)F)[C@H](Oc1ccc2c(cnn2-c2ccc(=O)n(C)c2)c1)c1ccccc1', 6.8),
  ('CC(C)[C@H](NC(=O)C(F)(F)F)[C@H](Oc1ccc2c(cnn2-c2ccc(=O)n(C)c2)c1)c1ccc(Cl)c(F)c1', 7.4),
  ('CC(C)[C@H](NC(=O)C(F)(F)F)[C@H](Oc1cc2cnn(-c3ccc(=O)n(C)c3)c2cc1Cl)c1ccccc1', 7.3);
